Kindly state activity change, negative = inhibition for each of the entries shown.
Biological target: Rap guanine nucleotide exchange factor 3 (Homo sapiens)
Experiment: Counterscreen qHTS for antagonist of cAMP-regulated guanine nucleotide exchange factor 3 (EPAC1) (AID 1645888);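 further: fluorescence loss as bound BODIPY-GDP is released from Rap1B; % of control where 0% means no effect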
Conditions: Rap1B-BODIPY-GDP nucleotide exchange, fluorescence; series mostly up to 154 µM
Records with an inconclusive call do not appear. Active and inactive are the calls of the source. The call rests on the fitted dose curve; in most records, active means well fitted inhibition curve with a large enough effect; inconclusive means small, poorly fitted or top-dose-only effect; inactive means no such curve, though single readings can be large or run the other way.

So what's the measured activity change, negative = inhibition for this one? COC(=O)C1=CN(c2ccc(F)cc2)C(N)=C(C#N)C1c1cccc(OC)c1OC (stereo not given)
-6.52% [at 30.8 µM] (inactive)

So what's the measured activity change, negative = inhibition for this one? O=C(/C=C/c1ccco1)Nc1cccc(C(=O)Nc2ccccc2C(=O)O)c1
19% [at 30.8 µM] (inactive)

So what's the measured activity change, negative = inhibition for this one? N#CC1=C(O)C(c2ccccc2)n2c1nc(=O)c1ccccc12 (stereo not given)
1.23% [at 30.8 µM] (inactive)

So what's the measured activity change, negative = inhibition for this one? CC(C)(C)[C@H](N)C(=O)N[C@H]1CCC2C3CC=C4C[C@@H](O)CC[C@]4(C)C3CC[C@@]21C (stereo not given in full)
-9.07% [at 30.8 µM] (inactive)
